Measured RP-LC retention time, listed per entry for reference.
assay: gradient 5% acetonitrile 3 min, to 50% in 2 min, to 85% in 15 min, held 3 min, 100 µL/min; conditions: column: Zorbax Extend-C18 2.1 x 50 mm; eluents: water / acetonitrile, 0.1% formic acid
Could you give me the number in s? Just the number is fine.

Example results:
* CC1(C)Cc2cccc(OCC(=O)N3CCN(Cc4nnnn4-c4ccccc4)CC3)c2O1 | 811
* CCN(CC)C(=O)N[C@H]1C[C@@H]2c3cccc4[nH]cc(c34)C[C@H]2N(C)C1 | 679
* Cc1ccc(C(=O)N2CCN(c3ccc(=O)n(-c4ccc(Cl)cc4)n3)CC2)s1 | 885

Exercise: Bench note: what RP-LC retention time did Cc1ccc(-n2nc(C)c3sc(N4CCCC(C(=O)NC5CCCC5)C4)nc32)cc1 (stereo not given) show?
Solution: 1150

Exercise: Bench note: what RP-LC retention time did Cc1ccc(C)c(N2CCN(c3ccnc(SCC(=O)NCc4ccccc4Cl)n3)CC2)c1 show?
Solution: 952

###

test: gradient 5% acetonitrile 3 min, to 50% in 2 min, to 85% in 15 min, held 3 min, 100 µL/min; conditions: column: Zorbax Extend-C18 2.1 x 50 mm; eluents: water / acetonitrile, 0.1% formic acid
Please respond with TRUE when measured RP-LC retention time is strictly beneath 900 s, and with FALSE in all other cases.

Exercise: Problem: For the molecule O=C(Cn1cccn1)N1CC(c2nc(-c3cccs3)no2)C1 , is RP-LC retention time under 900 s?
Solution: TRUE

Exercise: Problem: For the molecule COc1ccc(-c2nc(-c3cccc(-c4ccn[nH]4)c3)no2)cc1F , is RP-LC retention time under 900 s?
Solution: FALSE

Exercise: Problem: For the molecule O=C1NC(C(=O)NCc2ccccn2)Cn2cccc21 (centres undefined) , is RP-LC retention time under 900 s?
Solution: TRUE

Exercise: Problem: For the molecule CN1C(=O)c2cccnc2Sc2cc(NC(=O)COc3ccccc3)ccc21 , is RP-LC retention time under 900 s?
Solution: TRUE

Exercise: Problem: For the molecule O=C(Nc1cc(C(F)(F)F)ccc1Cl)c1ccc(N2C(=O)CCC2=O)cc1 , is RP-LC retention time under 900 s?
Solution: TRUE

Exercise: Problem: For the molecule Cc1nc2cc(N3CC(C(=O)NCc4ccccc4F)CC3=O)ccc2o1 (centres undefined) , is RP-LC retention time under 900 s?
Solution: TRUE

Exercise: Problem: For the molecule O=C(Cc1csc2nc(-c3cccc(Br)c3)cn12)NC1CCCCC1 , is RP-LC retention time under 900 s?
Solution: FALSE

Exercise: Problem: For the molecule CCCNC(=O)C1CCN(c2ccc(SCC(=O)Nc3cc(F)cc(F)c3)nn2)CC1 , is RP-LC retention time under 900 s?
Solution: TRUE

Exercise: Problem: For the molecule COc1cccc(C(=O)NC(NC(=O)c2cccc(OC)c2)c2ccc3c(c2)OCO3)c1 , is RP-LC retention time under 900 s?
Solution: TRUE

Exercise: Problem: For the molecule O=C(Nc1cccc(Cl)c1)c1nnn(-c2ccc(F)cc2)c1-c1cccnc1 , is RP-LC retention time under 900 s?
Solution: FALSE

Exercise: Problem: For the molecule O=C(c1ccco1)N1CCN(c2ccc(=O)n(-c3cccc(Cl)c3)n2)CC1 , is RP-LC retention time under 900 s?
Solution: TRUE

Exercise: Problem: For the molecule Cc1csc(-c2cc(S(=O)(=O)NCCC(C)C)cn2CC(=O)N2CCCCC2)n1 , is RP-LC retention time under 900 s?
Solution: FALSE

Exercise: Problem: For the molecule Cc1ccc(-c2noc(-c3ccc(=O)n(Cc4cccc(F)c4)n3)n2)cc1 , is RP-LC retention time under 900 s?
Solution: FALSE

Exercise: Problem: For the molecule COCc1noc(C2CN(CCc3ccccc3)CC23CCCC3)n1 (centres undefined) , is RP-LC retention time under 900 s?
Solution: TRUE

Exercise: Problem: For the molecule Cc1ccc(NC(=O)Cn2nc3nc(N4CCOCC4)ccn3c2=O)cc1F , is RP-LC retention time under 900 s?
Solution: TRUE

Exercise: Problem: For the molecule COc1ccc(-c2oc3c(CC=C(C)C)c(OC4O[C@H](CO)[C@@H](O)[C@H](O)[C@H]4O)cc(O)c3c(=O)c2OC2O[C@@H](C)[C@H](O)[C@@H](O)[C@H]2O)cc1 (some centres undefined) , is RP-LC retention time under 900 s?
Solution: TRUE

Exercise: Problem: For the molecule CS(=O)(=O)N1CCN(C(=O)c2ccsc2)CC1 , is RP-LC retention time under 900 s?
Solution: TRUE
